The reported numbers originate from ChEMBL document CHEMBL4513146.

# Tested on: Staphylococcus aureus
# experimental conditions: Concentration 32 ug.mL-1;; ASSAY_TEST Inhibition of Bacterial Growth; detection method Absorption (OD600); MEDIA CAMHB; plate type 384well; NBS; CORNING #3640; time 18 hr
# Description: Antibacterial activity against Staphylococcus aureus MRSA ATCC 43300 (CO-ADD:GP_020); MIC in CAMBH media, using NBS plates, by OD(600)
Results with a measured potency or affinity are listed apart.
measurement type: Inhibition (%)
State the answer as a number, implicitly in %.

CSc1ccc(CNC(=O)Cn2nc3c(N4CCOCC4)nccn3c2=O)cc1    19.42
Cc1cccc(NC(=O)Cn2c(=O)c3nnc(C(C)C)n3c3ccccc32)c1    1.06
CC(C)CCn1c(=O)c2sccc2n2c(=O)n(Cc3c(F)cccc3Cl)nc12    13.63
NC(=O)CSc1nnc2c(=O)n(-c3ccccc3)ccn12    9.05
CC(C)c1nnc2c(=O)n(CC(=O)Nc3ccc4c(c3)OCO4)c3ccccc3n12    -1.02
Cc1cccc(Sc2nccn3c(=O)n(CC(=O)N4CCN(c5ccccc5)CC4)nc23)c1    12.14
CCCNC(=O)Cn1nc2cc(C)nc(Nc3cc(C)cc(C)c3)n2c1=O    13.08
CCCCn1c(=O)c2sccc2n2c(=O)n(CC(=O)NC(C)C)nc12    6.34
N#Cc1cccc(NC(=O)CSc2nnc3c4cc(-c5ccc(F)cc5)nn4ccn23)c1    11.69
Cc1cc(C)c(NC(=O)Cn2nc3c(SC4CCCCC4)nccn3c2=O)c(C)c1    12.7

Inhibition recorded for this molecule, O=c1c2nn(Cc3cccc(Cl)c3)c(=O)n2ccn1-c1ccccc1 , is 0.94

Inhibition recorded for this molecule, COc1cc(OC)c(NC(=O)Cn2nc3c4c5c(sc4ncn3c2=O)CC(C)CC5)cc1Cl (stereo not given) , is 7.09

Inhibition recorded for this molecule, Cc1ccc(Oc2nccn3c(=O)n(CC(=O)N4CCN(c5ccc(F)cc5)CC4)nc23)cc1 , is 10.18

Inhibition recorded for this molecule, CCC(C)NC(=O)Cn1nc2ccc(SCc3ccc(Cl)cc3)nn2c1=O (stereo not given) , is 7.31

Inhibition recorded for this molecule, CCCCc1ccc(NC(=O)Cn2nc3c(Sc4ccccc4)nccn3c2=O)cc1 , is 4.84

Inhibition recorded for this molecule, COc1ccc(NC(=O)Cn2nc3ccc(SC(C)C)nn3c2=O)cc1OC , is -2.31

Inhibition recorded for this molecule, CC(C)NC(=O)Cn1nc2n(Cc3ccco3)c(=O)c3sccc3n2c1=O , is 9.36

Inhibition recorded for this molecule, CC(C)c1ccc(Cn2c(=O)c3sccc3n3c(SCc4cccc(C(F)(F)F)c4)nnc23)cc1 , is 11.56

Inhibition recorded for this molecule, COc1cccc(-n2ccn3c(SCC(=O)c4cccc(Cl)c4)nnc3c2=O)c1 , is -1.54

Inhibition recorded for this molecule, Cc1ccc(Cn2c(=O)c3ccccc3n3c(=O)n(CC(=O)Nc4ccc5c(c4)OCCO5)nc23)cc1 , is 6.52

Inhibition recorded for this molecule, Cc1cc2nn(CC(=O)Nc3ccccc3F)c(=O)n2c(Nc2ccc(C)c(F)c2)n1 , is -7.63

Inhibition recorded for this molecule, COc1ccc(-c2cc3c4nn(CC(=O)Nc5ccc(C)cc5)c(=O)n4ccn3n2)cc1 , is -0.62

Inhibition recorded for this molecule, COc1ccc(-c2cc3c4nn(CC(=O)Nc5ccccc5Cl)c(=O)n4ccn3n2)cc1 , is -2.84

Inhibition recorded for this molecule, COc1cccc(CNC(=O)CSc2nnc3c4cc(-c5cc(C)ccc5C)nn4ccn23)c1OC , is 5.75

Inhibition recorded for this molecule, CCOC(=O)c1ccccc1NC(=O)Cn1nc2c(Oc3cccc(C)c3C)nccn2c1=O , is 5.11

Inhibition recorded for this molecule, O=c1c2nnc(SCc3ccc(Cl)cc3)n2ccn1-c1ccc(F)c(F)c1 , is 4.12

Inhibition recorded for this molecule, Cc1ccc(-c2ccc3nn(CC(=O)Nc4ccc(Br)cc4F)c(=O)n3n2)cc1 , is 3.77

Inhibition recorded for this molecule, CCOc1ccc(-n2ccn3c(SCC(=O)Nc4ccccc4C(F)(F)F)nnc3c2=O)cc1 , is 16.73

* * *

Inhibition for assorted compounds
# Tested on: Escherichia coli
# experimental conditions: Concentration 32 ug.mL-1;; ASSAY_TEST Inhibition of Bacterial Growth; detection method Absorption (OD600); MEDIA CAMHB; plate type 384well; NBS; CORNING #3640; time 18 hr
# Description: Antibacterial activity against Escherichia coli ATCC 25922 (CO-ADD:GN_001); MIC in CAMBH media using NBS plates, by OD(600)
Measured potencies and affinities stand elsewhere.
State the answer as a number, implicitly in %.

Record excerpt, results attached:
COc1cc(OC)c(NC(=O)Cn2nc3c(N4CCOCC4)nccn3c2=O)cc1Cl    -1.96
O=C(Cn1nc2c(SC3CCCCC3)nccn2c1=O)Nc1ccccc1F    -6.05
Cc1ccc(NC(=O)Cn2nc3ccc(SC(C)(C)C)nn3c2=O)cc1C    2.46
COc1ccc(NC(=O)Cn2nc3ccc(SC(C)(C)C)nn3c2=O)cc1Cl    -6.93
CC(C)c1nnc2c(=O)n(CC(=O)Nc3ccc(Br)cc3F)c3ccccc3n12    1.53
O=C(Cn1nc2c3cc(-c4ccc(F)cc4)nn3ccn2c1=O)Nc1ccc2c(c1)OCCO2    1.96
COc1ccc(N2CCN(C(=O)Cn3nc4ccc(S(=O)(=O)C(C)(C)C)nn4c3=O)CC2)cc1    0.99
COc1ccc(NC(=O)Cn2nc3c4cc(-c5ccc(C)c(C)c5)nn4ccn3c2=O)cc1OC    -0.24

Field Inhibition (system: Escherichia coli) for entry COc1ccc(-c2cc3c4nnc(CCC(=O)NCc5ccc6c(c5)OCO6)n4ccn3n2)cc1 = 5.34

Field Inhibition (system: Escherichia coli) for entry O=C(Cn1nc2c(N3CCN(c4ccccc4)CC3)nccn2c1=O)Nc1ccc2c(c1)OCO2 = 0.21

* * *

# Test system: Staphylococcus aureus
# experimental conditions: Concentration 32 ug.mL-1;; ASSAY_TEST Inhibition of Bacterial Growth; detection method Absorption (OD600); MEDIA CAMHB; plate type 384well; NBS; CORNING #3640; time 18 hr
Measured potencies and affinities stand elsewhere.
Inhibition for assorted molecules
State the answer as a number, implicitly in %.

Record excerpt, results attached:
COc1ccc(NC(=O)CSc2nnc3c(=O)n(-c4ccccc4)ccn23)cc1    -4.77
COc1ccc(CNC(=O)Cn2nc3c(N4CCOCC4)nccn3c2=O)cc1    22.13
COc1ccc(C)cc1NC(=O)Cn1nc2c3cc(-c4ccc(C)c(C)c4)nn3ccn2c1=O    0.65
Cc1ccc(-c2ccc3nn(Cc4ccc(F)cc4Cl)c(=O)n3n2)cc1C    8.63

Inhibition recorded for this molecule, Cc1c(Cl)cccc1NC(=O)CSc1nc2ccccc2n2c(C)nnc12 , is 7.92

Inhibition recorded for this molecule, CSc1ccc(CNC(=O)Cn2nc3c(N4CC(C)CC(C)C4)nccn3c2=O)cc1 (stereo not given) , is 11.21

Inhibition recorded for this molecule, CCOc1ccccc1NC(=O)Cn1nc2c(Sc3ccccc3)nccn2c1=O , is -2.46

Inhibition recorded for this molecule, COc1ccccc1Cn1c(=O)c2sccc2n2c(=O)n(Cc3c(F)cccc3Cl)nc12 , is 3.95

Inhibition recorded for this molecule, Cc1cccc(C)c1NC(=O)Cn1nc2c3c4c(sc3ncn2c1=O)CCCC4 , is 7.51

Inhibition recorded for this molecule, Cc1ccc(Cl)cc1NC(=O)CSc1nc2ccccc2n2c(C(C)C)nnc12 , is 0.87

Inhibition recorded for this molecule, COc1ccc(N2CCN(C(=O)Cn3nc4ccc(-c5ccc(Cl)cc5)nn4c3=O)CC2)cc1 , is 9.33

Inhibition recorded for this molecule, O=S(=O)(c1cccn2cnnc12)N(Cc1ccc(F)cc1)c1ccc(F)cc1 , is 8.29

Inhibition recorded for this molecule, Cc1ccc(-c2cc3c4nnc(CCC(=O)N5CCC(Cc6ccccc6)CC5)n4ccn3n2)cc1C , is 10.73

Inhibition recorded for this molecule, Cc1ccc(Oc2nccn3c(=O)n(CC(=O)Nc4ccc5c(c4)OCO5)nc23)cc1 , is 6.26

Inhibition recorded for this molecule, CCOC(=O)c1ccc(NC(=O)Cn2nc3c(Oc4ccccc4)nccn3c2=O)cc1 , is -0.24

Inhibition recorded for this molecule, Cc1ccccc1Cn1nc2ccc(-c3ccccc3)nn2c1=O , is 10.41

Inhibition recorded for this molecule, N#Cc1cccc(NC(=O)CSc2nnc3c4cc(-c5ccccc5)nn4ccn23)c1 , is 2.79

* * *

Inhibition for assorted compounds
# Test system: Escherichia coli
# experimental conditions: Concentration 32 ug.mL-1;; ASSAY_TEST Inhibition of Bacterial Growth; detection method Absorption (OD600); MEDIA CAMHB; plate type 384well; NBS; CORNING #3640; time 18 hr
Results with a measured potency or affinity are listed apart.
State the answer as a number, implicitly in %.

Record excerpt, results attached:
COc1ccc(CNC(=O)Cn2nc3c4cc(-c5ccc(C)c(C)c5)nn4ccn3c2=O)cc1    2.95
O=C(Cn1nc2c(Oc3ccccc3)nccn2c1=O)Nc1ccc(Cl)cc1    -4.75
O=C(Cn1nc2nc(Nc3ccc(F)cc3)ccn2c1=O)N1CCOCC1    -3.26
COc1cccc(-n2ccn3c(SCc4ccc(C)cc4)nnc3c2=O)c1    -4.39
COC(=O)c1ccc(NC(=O)Cn2nc3ccc(C(=O)NCc4ccccc4)cn3c2=O)cc1    -2.38
O=C(Cn1nc2c3c4c(sc3ncn2c1=O)CCCC4)NCCc1ccc(Cl)cc1    2.28
Cc1ccc(NC(=O)Cn2nc3ccc(SC(C)(C)C)nn3c2=O)c(C)c1    -1.14
COc1ccc(NC(=O)Cn2nc3c(SCc4ccc(Cl)cc4)nccn3c2=O)cc1    -0.18
CCOc1ccc(NC(=O)Cn2nc3c4c5c(sc4ncn3c2=O)CCCC5)cc1    0.82
COc1ccc(-c2cc3c4nn(CC(=O)Nc5c(C)cc(C)cc5C)c(=O)n4ccn3n2)cc1    4.81

Field Inhibition (system: Escherichia coli) for entry CCCN(C)c1nccn2c(=O)n(CC(=O)Nc3ccc(F)cc3)nc12 = -2.86

Field Inhibition (system: Escherichia coli) for entry COc1ccc(NC(=O)Cn2nc3nc(N4CCOCC4)ccn3c2=O)cc1F = -9.58

Field Inhibition (system: Escherichia coli) for entry Cc1nnc2ccc(S(=O)(=O)N(Cc3ccccc3F)c3ccc(F)cc3)cn12 = -7.33

Field Inhibition (system: Escherichia coli) for entry Cc1ccc(NC(=O)Cn2nc3ccc(-c4ccccc4)nn3c2=O)cc1 = -12.45

Field Inhibition (system: Escherichia coli) for entry COc1ccccc1-n1ccn2c(SCC(=O)c3ccc(C)cc3C)nnc2c1=O = -10.12

Field Inhibition (system: Escherichia coli) for entry COc1ccc(Cl)cc1NC(=O)CSc1nc2ccccc2n2c(C(C)C)nnc12 = -1.47

Field Inhibition (system: Escherichia coli) for entry CCc1ccccc1NC(=O)CSc1nnc2ccc(C(=O)Nc3cccc(F)c3)cn12 = 1.35

Field Inhibition (system: Escherichia coli) for entry Cc1ccc(-c2cc3c4nnc(CCC(=O)NCc5ccc(C(F)(F)F)cc5)n4ccn3n2)cc1C = -2.88

Field Inhibition (system: Escherichia coli) for entry Cc1ccc(-c2ccc3nn(CC(=O)Nc4ccc(Cl)c(C(F)(F)F)c4)c(=O)n3n2)cc1C = -10.28

Field Inhibition (system: Escherichia coli) for entry COC(=O)c1ccc(NC(=O)Cn2nc3c4cc(-c5ccc(OC)cc5)nn4ccn3c2=O)cc1 = 3.86
